- study-system: Ubiquitin-activating enzyme e1, putative (Leishmania donovani (strain BPK282A1))
- test-protocol: Leishmania donovani Ubiquitin Activating Enzyme (LdE1)
- Assay type: functional
- Set-up: scale not given: direction of the effect not stated beside the values
- condition-context: 30 µM
Potency and affinity values are given separately.
As shown below, each of these compounds has a reported Percent Effect value.
quantity: Percent Effect (%)

INSERT INTO results (compound, quantity, numeric_result) VALUES
  ('Cn1ccc(C(=O)NCc2cccc(NC(=O)C3CCC3)c2)cc1=O', 'Percent Effect', 26),
  ('Cn1cc(CN2CCCN(C(=O)c3cc[nH]n3)CC2)cn1', 'Percent Effect', 5.13),
  ('COC1CCCN(Cc2nc(Cc3ccccc3F)no2)C1 (centres undefined)', 'Percent Effect', -5.41),
  ('CNC(=O)c1ccc(C2CN(C(=O)COC)CCO2)nc1 (centres undefined)', 'Percent Effect', 9.33),
  ('CCc1ncc2c(n1)CN(CC(=O)Nc1nnc(C)s1)CC2', 'Percent Effect', 5.33),
  ('CN(C)c1ccc(NC(=O)NCc2ccccn2)cn1', 'Percent Effect', 20.8),
  ('CCNC(=O)[C@@H]1C[C@@H](NC(=O)c2cccnc2O)CN1Cc1ccsc1', 'Percent Effect', 16.2),
  ('Cc1noc(Cl)c1CCC(=O)N1CCc2sccc2C1', 'Percent Effect', 18.7),
  ('Cc1ccc(-c2nc(CN3CCn4c(nnc4C4CC4)C3)co2)cc1', 'Percent Effect', -5.33),
  ('O=C(CCOc1ccc(Cl)cc1)N1CCN(c2cnccn2)CC1', 'Percent Effect', 18.2),
  ('CN(Cc1ccccc1)CC(O)Cn1cnc2c(cnn2C)c1=O (centres undefined)', 'Percent Effect', 17.9),
  ('CC(C)c1nc(C2CCCN2Cc2ccn(C)c(=O)c2)no1 (centres undefined)', 'Percent Effect', 15.4),
  ('CC1(C)OCC(CNC(=O)c2cnn(-c3ccc(Cl)cc3)c2N)O1 (centres undefined)', 'Percent Effect', 17.3),
  ('Cc1ccc(-c2nc(CCNC(=O)NC3CCN(C)CC3)co2)cc1', 'Percent Effect', 8),
  ('COc1ncc(C2CC(=O)NCc3nc4ccccn4c32)cn1 (centres undefined)', 'Percent Effect', 5.41),
  ('Cn1nc2c(cc1=O)CN(Cc1nnc(-c3ccco3)o1)CC2', 'Percent Effect', 17.9),
  ('CCn1nc2c(cc1=O)CN(Cc1nc(-c3ccsc3)no1)CC2', 'Percent Effect', 0),
  ('Cc1cnn(CC2CN(CC(=O)N(C)Cc3cccs3)CCO2)c1 (centres undefined)', 'Percent Effect', 5.33),
  ('O=C(NC[C@]1(O)CN(Cc2ccccc2F)C[C@H]1O)c1ccccn1', 'Percent Effect', 12),
  ('Cc1ccc(NC(=O)C(C)N2CCCN(c3nccs3)CC2)c(C)c1 (centres undefined)', 'Percent Effect', 15.4),
  ('Cc1ccc([C@@H]2CN(C(=O)c3csc(C)n3)C[C@H]2NC(=O)C2CC2)cc1', 'Percent Effect', 2.7),
  ('Cc1[nH]nc(CCC(=O)N2CCCC(OCc3cccnc3)C2)c1C (centres undefined)', 'Percent Effect', 10.8),
  ('O=C(c1ccco1)N1CCC2(CCC(=O)N2Cc2cccc(F)c2)CC1', 'Percent Effect', 14.3),
  ('COc1ccc(CNC(=O)N2CCC(Cc3cnn(C)c3)C2)cc1C (centres undefined)', 'Percent Effect', 7.69),
  ('COCC1CC2(CCN(Cc3ccc(OC)cc3)CC2)CN1C(C)C (centres undefined)', 'Percent Effect', -9.09),
  ('Cc1cnn(C2CCCN(C(=O)c3sccc3-n3cnnn3)C2)c1 (centres undefined)', 'Percent Effect', 7.69),
  ('CCOCC1CC2(CCN(C(=O)c3ccccn3)CC2)CO1 (centres undefined)', 'Percent Effect', -1.3),
  ('CCc1nc(CN(C)C2CCN(CCNS(=O)(=O)CC)C2)no1 (centres undefined)', 'Percent Effect', 5.33),
  ('COc1cccc(OC)c1C(=O)N1CCN(c2ccccc2F)CC1', 'Percent Effect', 12),
  ('Cc1cccc(-c2noc(CN3CCCC3Cn3cccn3)n2)c1 (centres undefined)', 'Percent Effect', -13.3),
  ('CCCC(=O)N1CCC2(CC1)CC(NC(C)=O)c1ccccc1O2 (centres undefined)', 'Percent Effect', 1.3),
  ('CCc1nc(C)ncc1C(=O)N1CCCC(n2nc(C)nc2C)C1 (centres undefined)', 'Percent Effect', -53.9),
  ('COc1ccc(CN2CCC3(CC2)CCN(CC(C)C)C3=O)cc1', 'Percent Effect', -1.3),
  ('CN(Cc1ccco1)[C@@H]1CN(Cc2ccc(F)cc2)C[C@@H]2CCCO[C@@H]21', 'Percent Effect', 9.09);

----------
- study-system: Protein translocase subunit SecA (Escherichia coli (strain K12)) (UniProt P10408)
- Sequence (P10408 whole entry): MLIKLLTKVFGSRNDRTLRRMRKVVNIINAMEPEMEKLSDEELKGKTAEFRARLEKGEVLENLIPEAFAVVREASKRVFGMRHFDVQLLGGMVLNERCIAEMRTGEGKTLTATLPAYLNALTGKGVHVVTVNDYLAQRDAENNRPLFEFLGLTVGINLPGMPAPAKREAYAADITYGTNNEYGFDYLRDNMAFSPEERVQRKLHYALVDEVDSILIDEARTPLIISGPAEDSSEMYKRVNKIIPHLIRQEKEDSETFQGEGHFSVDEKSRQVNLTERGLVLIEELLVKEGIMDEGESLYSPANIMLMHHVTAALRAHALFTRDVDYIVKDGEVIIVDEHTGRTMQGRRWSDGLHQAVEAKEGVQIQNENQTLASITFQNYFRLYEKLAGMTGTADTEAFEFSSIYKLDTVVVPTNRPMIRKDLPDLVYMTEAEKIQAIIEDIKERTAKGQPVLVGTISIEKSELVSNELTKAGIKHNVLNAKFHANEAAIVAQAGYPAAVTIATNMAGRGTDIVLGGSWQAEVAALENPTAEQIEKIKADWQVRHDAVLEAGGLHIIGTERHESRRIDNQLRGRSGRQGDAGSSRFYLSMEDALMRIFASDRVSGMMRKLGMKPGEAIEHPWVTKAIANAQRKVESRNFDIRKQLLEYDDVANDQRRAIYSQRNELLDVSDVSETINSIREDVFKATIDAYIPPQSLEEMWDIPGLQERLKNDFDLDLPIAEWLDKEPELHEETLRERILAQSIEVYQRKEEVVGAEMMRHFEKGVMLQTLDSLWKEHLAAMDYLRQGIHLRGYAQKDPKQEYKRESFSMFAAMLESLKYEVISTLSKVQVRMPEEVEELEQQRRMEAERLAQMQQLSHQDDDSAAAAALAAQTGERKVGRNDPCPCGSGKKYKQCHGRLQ
- test-protocol: Assay to Identify E. coli SecA ATPase Inhibitors
- Assay type: functional
- Parameters: scale not given: direction of the effect not stated beside the values
- condition-context: 30 µM
Results with a measured potency or affinity are listed apart.
As shown below, each of these compounds has a reported Percent Effect value.
quantity: Percent Effect (%)

INSERT INTO results (compound, quantity, numeric_result) VALUES
  ('CN1CC(c2ccccc2)CC12CCN(C(=O)c1cncc(Cl)c1)CC2 (stereo not given)', 'Percent Effect', -4.25),
  ('CCc1nc(C2CCCN2C(=O)c2c[nH]c(C)n2)no1 (stereo not given)', 'Percent Effect', -9.57),
  ('c1csc(-c2nc(CN3CCn4c(nnc4C4CC4)C3)co2)c1', 'Percent Effect', -2.65),
  ('CC(C)n1ccnc1CN1CCCN(C(=O)c2cc(Cl)c[nH]2)CC1', 'Percent Effect', -0.854),
  ('COCc1c(C(=O)NC2CCCC2)nnn1-c1ccc(C)cc1', 'Percent Effect', 106);

----------
- study-system: Proteasome subunit beta (Trypanosoma cruzi)
- Sequence (whole entry): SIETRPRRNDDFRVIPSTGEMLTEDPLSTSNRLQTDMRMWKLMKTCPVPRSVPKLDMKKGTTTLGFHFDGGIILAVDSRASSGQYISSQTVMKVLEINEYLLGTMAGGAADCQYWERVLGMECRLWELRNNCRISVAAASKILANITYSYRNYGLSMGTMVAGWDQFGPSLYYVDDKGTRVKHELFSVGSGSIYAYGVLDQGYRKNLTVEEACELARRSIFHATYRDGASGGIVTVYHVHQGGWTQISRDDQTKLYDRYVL
- test-protocol: Trypanosoma cruzi proteasome chymotrypsin-like activity (TcProtChymo) assay. Also: in the data most compounds retested in dose-response had high values.
- Format: functional
- Parameters: scale not given: direction of the effect not stated beside the values
- condition-context: 9.37 µM
quantity: Percent Effect (%)

INSERT INTO measurements (molecule, study_system, quantity, uom, numeric_result) VALUES
  ('CN(C)S(=O)(=O)N1CCCC(c2cccc(Cc3ccccc3)n2)C1 (stereo not drawn)', 'Proteasome subunit beta (Trypanosoma cruzi)', 'Percent Effect', '%', 14.4),
  ('Cc1cc(NC(=O)N(CC2CCOC2)C2CC2)no1 (stereo not drawn)', 'Proteasome subunit beta (Trypanosoma cruzi)', 'Percent Effect', '%', 6.7),
  ('CC(C)c1nc(C2CCCN2CC(=O)Nc2nncs2)no1 (stereo not drawn)', 'Proteasome subunit beta (Trypanosoma cruzi)', 'Percent Effect', '%', 5.17),
  ('O=C(N1CCC(Nc2cccnn2)CC1)C1(c2ccc(F)cc2)CC1', 'Proteasome subunit beta (Trypanosoma cruzi)', 'Percent Effect', '%', 1.4),
  ('NC[C@H]1CC[C@H](C(NC(=O)c2ccccn2)c2ccccn2)CC1 (stereo partly drawn)', 'Proteasome subunit beta (Trypanosoma cruzi)', 'Percent Effect', '%', 15.6),
  ('CCn1nc2c(cc1=O)CN(Cc1nc(-c3ccsc3)no1)CC2', 'Proteasome subunit beta (Trypanosoma cruzi)', 'Percent Effect', '%', 4.18),
  ('COc1cccc(OC)c1C(=O)N1CCN(c2ccccc2F)CC1', 'Proteasome subunit beta (Trypanosoma cruzi)', 'Percent Effect', '%', 12.2),
  ('CC(C)c1cc(NC(=O)CN2CCNC(=O)C2)on1', 'Proteasome subunit beta (Trypanosoma cruzi)', 'Percent Effect', '%', 11.2),
  ('c1csc(-c2nc(CN3CCn4c(nnc4C4CC4)C3)co2)c1', 'Proteasome subunit beta (Trypanosoma cruzi)', 'Percent Effect', '%', 9.58),
  ('O=C(NCc1cc[nH]n1)NCC(O)c1ccc(F)cc1F (stereo not drawn)', 'Proteasome subunit beta (Trypanosoma cruzi)', 'Percent Effect', '%', 7.38),
  ('CCC1CN(C(=O)c2ccccc2N2CCCC2)CCN1C(C)C (stereo not drawn)', 'Proteasome subunit beta (Trypanosoma cruzi)', 'Percent Effect', '%', 5.31),
  ('Cc1ccc(NC(=O)C2CSCN2C(=O)c2cnn(C)c2)c(C)c1 (stereo not drawn)', 'Proteasome subunit beta (Trypanosoma cruzi)', 'Percent Effect', '%', -1.28),
  ('CCCc1nc(C)c(C(=O)NCCN2CCN(CC)CC2)s1', 'Proteasome subunit beta (Trypanosoma cruzi)', 'Percent Effect', '%', -1.23),
  ('Cn1cc(CN2CCCC3(CCCN3S(C)(=O)=O)C2)cn1 (stereo not drawn)', 'Proteasome subunit beta (Trypanosoma cruzi)', 'Percent Effect', '%', 12.3),
  ('Cc1nc(C(=O)N2CCC(Cc3cnc4[nH]ccc4c3)C2)co1 (stereo not drawn)', 'Proteasome subunit beta (Trypanosoma cruzi)', 'Percent Effect', '%', 10.5),
  ('COc1cccc2c1OCC(C(=O)N1CCC(N3CCOC3=O)CC1)C2 (stereo not drawn)', 'Proteasome subunit beta (Trypanosoma cruzi)', 'Percent Effect', '%', 9.59),
  ('CCCn1[nH]cc/c1=N\C(=O)CN1CCc2cnc(CC)nc2C1', 'Proteasome subunit beta (Trypanosoma cruzi)', 'Percent Effect', '%', 2.29),
  ('CC(C)c1cc(NC(=O)CN2CCC(N3CCCCC3)CC2)on1', 'Proteasome subunit beta (Trypanosoma cruzi)', 'Percent Effect', '%', 9.3),
  ('CN(C)C(=O)CCC(=O)NCc1cccnc1-n1cnc2ccccc21', 'Proteasome subunit beta (Trypanosoma cruzi)', 'Percent Effect', '%', -1.03),
  ('CS(=O)(=O)N1CCC(c2nnc3ccc(C(=O)N4CCCC4)cn23)C1 (stereo not drawn)', 'Proteasome subunit beta (Trypanosoma cruzi)', 'Percent Effect', '%', 16.9),
  ('CCCN1CCCn2nc(CNS(=O)(=O)c3ccc(C)cc3)cc2C1', 'Proteasome subunit beta (Trypanosoma cruzi)', 'Percent Effect', '%', 10.3),
  ('CC(C)c1nnc2n1CCN(C(=O)c1ccc3cc[nH]c3c1)C2', 'Proteasome subunit beta (Trypanosoma cruzi)', 'Percent Effect', '%', 1.27),
  ('COc1ccc2c(c1)OCC(CNC(=O)c1ccncc1)C2 (stereo not drawn)', 'Proteasome subunit beta (Trypanosoma cruzi)', 'Percent Effect', '%', 20.4),
  ('CNC(=O)COc1ccccc1CNC1CCc2ncnn2C1 (stereo not drawn)', 'Proteasome subunit beta (Trypanosoma cruzi)', 'Percent Effect', '%', 18.7),
  ('CC(Cn1cccn1)NC(=O)NCc1ccccn1 (stereo not drawn)', 'Proteasome subunit beta (Trypanosoma cruzi)', 'Percent Effect', '%', 7.04),
  ('CCn1ccnc1CN1CCN(CC(O)c2ccccc2)CC1 (stereo not drawn)', 'Proteasome subunit beta (Trypanosoma cruzi)', 'Percent Effect', '%', 6.91),
  ('Cc1nn(C)c(N(C)C)c1CNC(C)c1cccc(OC(C)C)c1 (stereo not drawn)', 'Proteasome subunit beta (Trypanosoma cruzi)', 'Percent Effect', '%', 4.91),
  ('COc1ccc(CN2CCC3(CC2)CCN(CC2CC2)C3=O)cc1', 'Proteasome subunit beta (Trypanosoma cruzi)', 'Percent Effect', '%', 3.18);
